B1: CPOX (parent)
chain: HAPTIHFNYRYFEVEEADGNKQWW

variants of: B1; experiment: protein stability index of a GFP-peptide fusion (GPS, HEK-293T) (PSI 1-6); higher = more stable; conditions: c terminus: a fixed tail appended;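 further: lentivirally expressed fusions sorted by FACS into six bins by GFP to DsRed ratio, PSI derived from sequencing read proportions per bin multiplied by bin number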
Measured protein stability index, listed per entry for reference.

| seq | protein stability index |
| --- | --- |
| HAPTIHFNYAYFEVEEADGNKQWW [R10A] | 2.56 |
| HAPTILFNYRYFEVEEADGNKQWW [H6L] | 1.82 |
| HAPTINFNYRYFEVEEADGNKQWW [H6N] | 2.5 |
